Biological target: KCNQ1-KCNE1 (Homo sapiens)
Test: Two-electrode voltage clamp of KCNQ1-KCNE1 in Xenopus oocytes
assayEndpoint: EC50 (µM)
Express your answer in µM, writing the number without its unit.

Name the recorded EC50 of the compound listed here: CC(=O)c1c(O)c(C)c(O)c(Cc2c(O)c3c(c(C(=O)/C=C/c4ccccc4)c2O)OC(C)(C)C=C3)c1O [MTX, mallotoxin]
27.9

* * *

Molecular target: human KCNQ1 (Homo sapiens, UniProt P51787)
Sequence (P51787 whole entry): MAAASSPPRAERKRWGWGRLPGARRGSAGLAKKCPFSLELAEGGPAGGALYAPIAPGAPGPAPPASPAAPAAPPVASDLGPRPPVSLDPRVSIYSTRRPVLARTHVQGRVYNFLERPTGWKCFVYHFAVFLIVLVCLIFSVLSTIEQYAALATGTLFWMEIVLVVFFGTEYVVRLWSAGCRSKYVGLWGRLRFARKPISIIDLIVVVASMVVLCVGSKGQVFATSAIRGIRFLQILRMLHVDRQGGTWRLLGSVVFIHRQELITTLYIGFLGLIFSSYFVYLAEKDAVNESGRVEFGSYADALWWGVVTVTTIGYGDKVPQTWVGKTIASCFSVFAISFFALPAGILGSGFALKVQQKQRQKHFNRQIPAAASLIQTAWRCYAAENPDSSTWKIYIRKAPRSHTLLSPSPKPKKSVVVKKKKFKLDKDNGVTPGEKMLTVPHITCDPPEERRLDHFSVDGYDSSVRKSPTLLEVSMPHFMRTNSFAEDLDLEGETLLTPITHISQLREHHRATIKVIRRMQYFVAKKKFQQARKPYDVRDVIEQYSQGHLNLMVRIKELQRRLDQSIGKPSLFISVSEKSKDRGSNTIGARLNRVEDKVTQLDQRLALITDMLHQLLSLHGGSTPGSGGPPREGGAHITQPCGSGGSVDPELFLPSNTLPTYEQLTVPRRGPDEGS
Assay: Two-electrode voltage clamp of KCNQ1 expressed in Xenopus laevis oocytes
Type: cell-based
assayEndpoint: pEC50
Quick note: pEC50 values are minus log10 of concentrations in mol/L.

Name the recorded pEC50 of the compound listed here: CCC1=C(O)C(=O)CC1 [CPT1, 3-ethyl-2-hydroxy-2-cyclopenten-1-one]
7.00
